Entry source: ChEMBL document CHEMBL4033775

Assay: Half life in po dosed rat
Format: ADME, organism-based
Details: in vivo
Reported Property: half-life (h)
Note: unit h is implicit; provide only the numeric part.

Using the record for `CC1(C)[C@H](C(=O)N=C(N)N)[C@H]1c1cccc2c1CCO2` , state its measured half-life.
3

* * *

Target: Sodium/hydrogen exchanger 1 (Homo sapiens, UniProt P19634)
Sequence (P19634 whole entry): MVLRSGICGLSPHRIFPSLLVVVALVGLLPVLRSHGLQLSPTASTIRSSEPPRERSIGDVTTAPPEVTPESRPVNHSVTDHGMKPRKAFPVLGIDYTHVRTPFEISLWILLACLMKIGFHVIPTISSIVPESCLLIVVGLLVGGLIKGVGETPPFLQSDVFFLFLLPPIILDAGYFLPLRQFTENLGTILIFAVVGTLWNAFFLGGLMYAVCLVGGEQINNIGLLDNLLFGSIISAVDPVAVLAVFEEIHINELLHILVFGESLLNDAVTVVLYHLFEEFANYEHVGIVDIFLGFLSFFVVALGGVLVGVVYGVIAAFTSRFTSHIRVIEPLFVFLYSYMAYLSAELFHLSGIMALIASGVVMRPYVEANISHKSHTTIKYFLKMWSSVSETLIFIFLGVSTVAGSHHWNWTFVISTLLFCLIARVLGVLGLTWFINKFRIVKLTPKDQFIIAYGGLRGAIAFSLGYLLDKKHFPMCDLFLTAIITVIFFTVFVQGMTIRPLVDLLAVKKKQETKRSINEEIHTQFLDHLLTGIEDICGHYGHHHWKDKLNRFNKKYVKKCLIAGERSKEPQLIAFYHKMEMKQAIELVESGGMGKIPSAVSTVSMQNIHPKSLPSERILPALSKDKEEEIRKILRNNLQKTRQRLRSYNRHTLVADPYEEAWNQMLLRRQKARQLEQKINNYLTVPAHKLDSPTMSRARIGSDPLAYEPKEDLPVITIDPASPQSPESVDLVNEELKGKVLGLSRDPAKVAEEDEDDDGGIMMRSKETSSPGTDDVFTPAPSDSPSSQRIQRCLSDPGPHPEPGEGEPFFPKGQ
Reported Property: pIC50
Reminder that pIC50 is minus the log10 of a molar concentration.

Provide pIC50 value for the following compound: `CC1(C)[C@H](C(=O)N=C(N)N)[C@H]1c1cccc2c1CCO2`
8.00

* * *

Target: Prothrombin (Homo sapiens)
Assay: Inhibition of human plasma thrombin using chromogenix AB as substrate after 30 secs by UV-spectrophotometry
Reported Property: Ki (nM)
Express your answer in nM, writing the number without its unit.

• CC1(C)CNc2c(cccc2S(=O)(=O)N[C@@H](CCCNC(=N)N)C(=O)N2CCC(CCO)CC2)C1 = 30

// below: Ki requested for another molecule
Look up and state reported Ki for CC1CNc2c(cccc2S(=O)(=O)N[C@@H](CCCNC(=N)N)C(=O)N2CCC(CCO)CC2)C1 (mixture of isomers)
40
